Each entry below carries its reported CC50.
method.summary: cytotoxicity in mock-infected MT-4 cells (MTT)
Format: cell-based
test.settings: human, mock-infected MT-4 cells; concentration reducing absorbance of mock-infected MT-4 control by 50%; MTT

>  <molecule>
Cc1cc(Br)c(Nc2nc(Nc3ccc(C#N)cc3)ncc2Cl)c(Br)c1 [Compound 10]

>  <comparison.symbol>
=

>  <CC50 (µM)>
0.4

$$$$
>  <molecule>
Cc1cc(C)c(Nc2nc(Nc3ccc(C#N)cc3)ncc2Br)c(C)c1 [Compound 3]

>  <comparison.symbol>
=

>  <CC50 (µM)>
4.4

$$$$
>  <molecule>
Cc1cc(C#N)cc(C)c1Oc1nc(Nc2ccc(C#N)cc2)nc(N)c1Br [Compound 46]

>  <comparison.symbol>
>

>  <CC50 (µM)>
200

$$$$
>  <molecule>
COC(=O)COCC(=O)N(c1ccc(C#N)cc1)c1ncc(Br)c(Oc2c(C)cc(C#N)cc2C)n1 [Compound 61]

>  <comparison.symbol>
>

>  <CC50 (µM)>
100

$$$$
>  <molecule>
Cc1cc(C#N)cc(C)c1Oc1nc(Nc2ccc(C#N)cc2)ncc1Br [Compound 17]

>  <comparison.symbol>
>

>  <CC50 (µM)>
10

$$$$
